The values you see were collected from the kinase profiling compilation of Christmann-Franck et al. (2016).

Listing of entries alongside the reported residual activity.
# TARGET ENTITY: MAPK8 (human) (UniProt P45983)
# Sequence (P45983 whole entry, looked up): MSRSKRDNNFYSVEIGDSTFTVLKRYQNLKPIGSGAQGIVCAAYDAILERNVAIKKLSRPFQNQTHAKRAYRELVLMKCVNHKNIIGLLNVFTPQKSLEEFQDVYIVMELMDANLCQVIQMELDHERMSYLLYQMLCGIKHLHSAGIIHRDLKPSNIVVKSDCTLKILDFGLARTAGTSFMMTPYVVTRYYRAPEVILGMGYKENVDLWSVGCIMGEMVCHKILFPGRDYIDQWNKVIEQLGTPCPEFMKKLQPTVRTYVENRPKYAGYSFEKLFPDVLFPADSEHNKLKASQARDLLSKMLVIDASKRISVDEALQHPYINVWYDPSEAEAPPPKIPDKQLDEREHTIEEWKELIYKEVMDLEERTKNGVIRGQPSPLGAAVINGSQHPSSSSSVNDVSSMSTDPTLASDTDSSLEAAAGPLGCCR
# EXPERIMENTAL DETAILS: radiometric filter-binding kinase assay, Kinase HotSpot
# CONDITIONS: compound 0.5 µM; ATP 10 µM
Please state the figure in %; there is no need to write the unit.

Can you share its residual activity? I mean this molecule: `CN(C)CCCn1cc(C2=C(c3c[nH]c4ccccc34)C(=O)NC2=O)c2ccccc21`
90.2

Then `O=C(c1cc2cc(O)ccc2[nH]1)c1cc2cc(O)ccc2[nH]1` ?
112

Same thing, different molecule: `Fc1ccc(-c2nc3n(c2-c2ccncc2)CCS3)cc1`
99

Please turn your attention to the following entry.
Recorded residual activity for `O=C1c2ccccc2-c2nc3nnnn3nc21` , please?
78.3
